Provenance of the data: PubChem BioAssay (NCI)

- Test system: NCI-H522 lung
- method_description: NCI-60 one-dose screen, 48 h
- condition_description: 10 µM unless noted
The panel holds about 83,000 compounds, 20% with a hit somewhere; the sample as a whole holds those more often. Active and inactive are the calls of the source. The calls were made as follows: active = growth percent below 10; inactive = the rest.
Log the outcome using a class from Y (active), N (inactive)

Worked set:
O=C(/C=C/C=C/c1csc(Br)n1)NO
N
C=C(C)[C@@H]1CC[C@]2(C(=O)N3CCN(C)CC3)CC[C@]3(C)[C@H](CC[C@@H]4[C@@]5(C)CC[C@H](OP(=O)(OCC)OCC)C(C)(C)[C@@H]5CC[C@]43C)[C@@H]12
N
C#CCN(C)CCCOc1ccc(NC(=O)CCCCCCC(=O)NO)cc1Cl
N
Cc1csc(/N=C(N)/N=C(\N)c2cccc(C#N)c2)n1
N

Q) Which outcome was assigned to O=C(CSc1nnc(-c2cccs2)n1-c1ccccc1)Nc1ccccc1F in this test?
A) N

Q) Again, but for Cc1ccc(C(=O)Nc2ccc(CNCCN3CCOCC3)c(C(F)(F)F)c2)cc1C#Cc1cnc2cccnn12
A) Y

Q) Again, but for COc1ccc2c(c1)c(-c1nn3cc(-c4ccncc4)nc3s1)cn2C
A) N

Q) Again, but for Oc1ccc(-c2nc3ccc(/C(=N\N=C\c4ccc(Cl)cc4)c4ccccc4)cc3[nH]2)cc1
A) N

Q) Again, but for FC(F)(F)c1cc(Br)cc(-c2cc(-c3ccc4c(c3)OCCO4)[nH]n2)c1
A) N

Q) Again, but for O=c1nc(Nc2ccc([N+](=O)[O-])cc2O)sc2ccccc12
A) N

Q) Again, but for COc1cc(C(=O)c2cc(C(C)=O)c3cccc(C)n23)cc(OC)c1OC
A) N

Q) Again, but for N#Cc1c(-c2cccs2)cc(-c2cnccn2)nc1SCC(=O)N/N=C/c1ccc(Cl)cc1
A) N

* * *

- Test system: MCF7 breast
- method_description: NCI-60 one-dose screen, 48 h
- condition_description: 10 µM unless noted
Compounds without any hit were thinned out: in the full panel of roughly 83,000, 20% have a hit. Calls of active or inactive are those of the source. The calls were made as follows: active = growth percent below 10; inactive = the rest.
Log the outcome using a class from active, inactive

Worked set:
O=S(=O)(NCCCNc1nccc(-c2[nH]c(-c3ccccc3)nc2-c2ccc(F)c(O)c2)n1)c1ccc(C(F)(F)F)cc1
active
CC(C)Sc1nc(-c2ccccc2)c(C#N)c(N2CCOCC2)n1
inactive
O=C(O)c1ccc(-n2c(=O)n(-c3cccc(C(F)(F)F)c3)c(=O)c3cc(-c4ccc(F)cc4F)ccc32)cc1
active
CC(=O)c1c([Si](C)(C)C)c2cc(C#N)ccn2c1C(=O)c1ccc(Br)cc1
inactive
Clc1cccc(/C=N/Nc2nc(N/N=C/c3cccc(Cl)c3)nc(N3CCCCC3)n2)c1
inactive
CN1CCN(Cc2ccc(NC(=O)c3cncc(C#Cc4cnc5ccc(OC6CCOCC6)nn45)c3)cc2C(F)(F)F)CC1
active
O=c1c2ccccc2cc2n1CCN=C2c1ccccc1
inactive

Next:
Q) Which outcome was assigned to CCCC/C(=C\c1ccc(O)c(O)c1)C(=O)NC(Cc1ccccc1)C(=O)C(=O)NCCc1ccc(OC)cc1 (stereo not drawn) in this test?
A) inactive

* * *

- Tested on: K-562 leukemia
- method_description: NCI-60 one-dose screen, 48 h (100 = growth as untreated, 0 = no growth, -100 = all killed)
- condition_description: 10 µM unless noted
- Experimental: Cells are grown in 96 well plates and exposed to the test compound for 48 hours. Compounds are tested at a single concentration, which is 10^-5 M for most compounds. The reported endpoint is percent growth (GI% or GIPRCNT), where numbers from 0 - 100% represent growth inhibition, and numbers from -100% - 0 represent cell death. For example, a value of 40 represents 60% growth inhibition. A value of 0 means no net growth occurred over the course of the experiment. […]
The panel holds about 83,000 compounds, 20% with a hit somewhere; the sample as a whole holds those more often.
property_label: growth (%)
Return type: number; implicit unit %.

Previously resolved entries follow.
O=C(CCCCCCN1CC(=O)N2[C@@H](c3cccs3)c3[nH]c4ccccc4c3C[C@H]2C1=O)NO
64.7
CC(=O)c1cc(C(=O)N2c3ccccc3Sc3ccccc32)n2c1ccc1ccccc12
23.6
CCOP(=O)(OCC)OC[C@]12CC[C@@H](C)[C@H](C)C1C1=CC[C@@H]3[C@@]4(C)CCCNC(C)(C)[C@@H]4CC[C@@]3(C)[C@]1(C)CC2 (stereo partly specified)
-59.7
CCc1nnc(NC(=O)c2cc(-c3ccc(Cl)cc3Cl)oc2C)s1
86
O=C(/C=C/c1ccc(Cl)c(Cl)c1)Nc1ncc(Cc2ccc(Cl)c(Cl)c2)s1
15.3
CCN(CC)c1ccc(/C=N/NC(=O)c2ccc(S(N)(=O)=O)cc2)c(O)c1
12.4
COc1ccc2sc(NC(=O)CCCCCCNC(=O)C(O)(O)C(F)(F)F)nc2c1
11.2
C#CCOc1ccccc1C(OC(=O)c1ccccc1)C(=O)NC(C)(C)C(C)(C)C (stereo unspecified)
78.3
O=C1Nc2cc(Cl)ccc2/C1=C\c1ccc(OCc2ccccc2)cc1
93.1
COc1ccc2c(c1)c(-c1nc(N)nnc1-c1c[nH]c3ccccc13)cn2C
16.3

Q) Find the recorded growth belonging to O=S1SC(c2ccccc2)=NN1c1cc(F)cc(F)c1 (stereo unspecified) and report it.
A) 22.5

Q) Again, but for C=CCSC1=NC2C(N(CC)C(=O)N2CC)N1/N=C/C=C/c1ccccc1OC (stereo unspecified)
A) 28

Q) Again, but for O=C(CCCCCCNC(=O)C(O)(O)C(F)(F)F)Nc1nc2ccccc2s1
A) 11.2

Q) Again, but for Cc1cc(Br)ccc1-n1cc(C#N)c(N)c1C(=O)c1ccc(Br)cc1
A) 119

Q) Again, but for OCC(Nc1ncnc2ccc(-c3cnc4cnccn34)cc12)c1ccccc1 (stereo unspecified)
A) 60.2

Q) Again, but for CCCCCCCCCCCC(=O)NC(C)(C)C(=O)N1CCCC1C(=O)NC(C)(C)C(=O)NC(C)(C)C(=O)N1CCCC1C(=O)NC(C)(C)C(=O)NC(C)(C)C(=O)N1CCCC1C(=O)NC(C)C(=O)NCCC(=O)NC(C)C(=O)NC(C)(C)C(=O)NC(C)(C)C(=O)NC(C)(C)C(=O)NCCC(=O)NC(C)(C)C(=O)NC(C)(C)C(=O)NC(C)(C)C(=O)NC(C)C(=O)NCCC(=O)O (stereo unspecified)
A) -65.4

Q) Again, but for O=C1[C@@H]2Cc3c([nH]c4ccccc34)[C@@H](c3ccc(Cl)cc3)N2C(=O)CN1C1CCN(Cc2c(F)cccc2F)CC1
A) 16.8

Q) Again, but for Nc1nc(=O)n([C@H]2C[C@H](O)[C@@H](CO)O2)cc1C=O
A) 97.2

Q) Again, but for CN1CCN(c2ccc(C(=O)/C=C/c3cc(F)cc(C(F)(F)F)c3)cc2)CC1
A) 11.1

Q) Again, but for Brc1cc(-c2cc(-c3ccc4c(c3)OCCO4)[nH]n2)cs1
A) 15

* * *

- Test system: A549/ATCC NSCLC
- method_description: NCI-60 one-dose screen, 48 h (100 = growth as untreated, 0 = no growth, -100 = all killed)
- condition_description: 10 µM unless noted
Compounds without any hit were thinned out: in the full panel of roughly 83,000, 20% have a hit.
# growth listing for each entry below
Return type: number; implicit unit %.

C=CCSC1=NC2C(N(CC)C(=O)N2CC)N1/N=C/C=C/c1ccccc1OC (stereo not drawn)
69.8
CCC(=C(c1ccc(OCCN(C)C)cc1)c1ccc(OCCN(C)C)cc1)c1ccc(Cl)cc1
-72.3

As a next step, examine the compound that follows.
Q) Fill in the recorded growth for this compound, with A549/ATCC NSCLC as test system: CCOC(=O)c1c(NC(=O)c2ccc(C(F)(F)F)cc2)sc2c(CN3CCN(C)CC3)c(O)ccc12
A) -74.8

* * *

- Test system: SW-620 colon
- method_description: NCI-60 one-dose screen, 48 h
- condition_description: 10 µM unless noted
This is part of a sample that, as a whole, favours compounds with a hit. Of some 83,000 tested, about 20% had one in any assay. Active and inactive are the calls of the source. Rule for the calls: active = growth percent below 10; inactive = the rest.
Log the outcome using a class from active, inactive

Worked set:
C[C@H](Nc1ncnc2ccc(-c3cnc(Cl)c(NS(C)(=O)=O)c3)cc12)c1ccccc1
active
N#Cc1nc(-c2ccc(Cl)cc2)oc1N1CCC(S(=O)(=O)N2CCOCC2)CC1
inactive
CCN(CC)CCOc1ccc(C(=C(c2ccccc2)C2CCCC2)c2ccc(OCCN(CC)CC)cc2)cc1
inactive
NC1C2CCC1CN(c1cnc(C(=O)Nc3cc(F)cc4cccnc34)cn1)C2 (stereo not given)
inactive
CN1CCN(c2ccc(Nc3nc(NCCCNS(=O)(=O)c4ccc(C(F)(F)F)cc4)c4sccc4n3)cc2)CC1
active

Q) Which outcome was assigned to CN(C)c1cccc2c(S(=O)(=O)Nc3cccc(-c4csc(NC(=O)CCCCCN5CCN(CCO)CC5)n4)c3)cccc12 in this test?
A) inactive

Q) Again, but for CC/C(=C(/c1ccc(Cl)cc1)c1ccc(OCCN)cc1)c1ccccc1
A) inactive

Q) Again, but for CCCCCN1C(=O)/C(=c2\sc3n(c2=O)C2C(NN=3)N(CC)C(=O)N2CC)c2cccc(C)c21 (stereo not given)
A) inactive

Q) Again, but for C#Cc1nc(/C=C/C(=O)NO)cs1
A) inactive

Q) Again, but for O=C(/C=C/c1cccc(F)c1)c1cccc(OCCCCOc2cccc(C(=O)/C=C/c3cccc(F)c3)c2)c1
A) inactive

Q) Again, but for CN(C)CCNc1ccc2ncc(C#Cc3cncc(C(=O)Nc4ccc(CN5CCN(C)CC5)c(C(F)(F)F)c4)c3)n2n1
A) active
